Attribution: patent EP0823908B1

Hi there, I'd appreciate the recorded IC50 for every entry that follows.
Target: Human EGF receptor tyrosine kinase (Homo sapiens)
Construct: Human EGF receptor tyrosine kinase was isolated from A431 epidermoid carcinoma cells; endogenous in cells
Sequence (P00533 25-1210): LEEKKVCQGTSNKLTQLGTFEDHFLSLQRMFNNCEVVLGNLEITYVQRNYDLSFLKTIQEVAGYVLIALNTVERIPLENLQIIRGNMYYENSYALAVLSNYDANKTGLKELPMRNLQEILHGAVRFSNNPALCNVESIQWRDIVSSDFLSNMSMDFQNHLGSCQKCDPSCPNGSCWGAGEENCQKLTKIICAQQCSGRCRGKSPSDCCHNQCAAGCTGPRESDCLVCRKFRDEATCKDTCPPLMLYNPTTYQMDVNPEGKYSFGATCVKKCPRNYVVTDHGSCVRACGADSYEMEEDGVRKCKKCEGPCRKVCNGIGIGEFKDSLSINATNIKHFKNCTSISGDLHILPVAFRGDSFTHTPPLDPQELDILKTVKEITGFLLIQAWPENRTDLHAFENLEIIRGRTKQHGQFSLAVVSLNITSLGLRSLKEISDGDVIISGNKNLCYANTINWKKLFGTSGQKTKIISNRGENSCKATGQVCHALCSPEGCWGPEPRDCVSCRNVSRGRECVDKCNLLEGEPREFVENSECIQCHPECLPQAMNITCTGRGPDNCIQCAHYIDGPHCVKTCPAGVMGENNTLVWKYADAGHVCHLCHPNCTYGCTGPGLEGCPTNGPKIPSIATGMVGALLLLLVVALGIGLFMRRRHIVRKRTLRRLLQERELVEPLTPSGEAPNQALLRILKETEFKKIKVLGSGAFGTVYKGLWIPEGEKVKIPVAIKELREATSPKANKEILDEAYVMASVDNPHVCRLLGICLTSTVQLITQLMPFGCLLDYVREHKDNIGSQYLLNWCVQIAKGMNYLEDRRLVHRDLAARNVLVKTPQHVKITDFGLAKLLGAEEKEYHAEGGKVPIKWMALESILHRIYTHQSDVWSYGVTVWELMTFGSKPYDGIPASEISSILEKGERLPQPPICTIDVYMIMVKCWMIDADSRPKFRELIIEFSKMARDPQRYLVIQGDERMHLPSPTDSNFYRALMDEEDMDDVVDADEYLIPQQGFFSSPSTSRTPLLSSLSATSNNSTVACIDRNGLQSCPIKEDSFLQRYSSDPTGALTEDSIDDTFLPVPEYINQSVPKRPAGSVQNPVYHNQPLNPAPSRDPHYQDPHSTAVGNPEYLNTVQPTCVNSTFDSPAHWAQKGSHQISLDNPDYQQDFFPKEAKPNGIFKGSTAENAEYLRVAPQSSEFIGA
Experiment summary: EGF receptor tyrosine kinase enzyme assay (substrate peptide phosphorylation)
Protocol conditions: read-out: EGF-FL IC50
Numbers only here, please. The scale is nM.

Ask: Request - read-out IC50 | tested on Human EGF receptor tyrosine kinase (Homo sapiens) | molecule `Nc1ncc2cc(-c3c(Cl)cccc3Cl)c(=O)n(Cc3cccc(Br)c3)c2n1`
Reply: 62

Ask: Request - read-out IC50 | tested on Human EGF receptor tyrosine kinase (Homo sapiens) | molecule `Cn1c(=O)c(-c2c(Cl)cccc2Cl)cc2cnc(Nc3ccncc3)nc21`
Reply: 119

Ask: Request - read-out IC50 | tested on Human EGF receptor tyrosine kinase (Homo sapiens) | molecule `CCn1c(=O)c(-c2c(Cl)cccc2Cl)cc2cnc(Nc3ccccc3)nc21`
Reply: 120

Ask: Request - read-out IC50 | tested on Human EGF receptor tyrosine kinase (Homo sapiens) | molecule `Nc1ncc2cc(-c3c(Cl)cccc3Cl)c(=O)n(Cc3ccncc3)c2n1`
Reply: 6700

Ask: Request - read-out IC50 | tested on Human EGF receptor tyrosine kinase (Homo sapiens) | molecule `COc1ccc(Nc2ncc3cc(-c4c(Cl)cccc4Cl)c(=O)n(C)c3n2)cc1C`
Reply: 160

Ask: Request - read-out IC50 | tested on Human EGF receptor tyrosine kinase (Homo sapiens) | molecule `Cn1c(=O)c(-c2c(Cl)cccc2Cl)cc2cnc(N)nc21`
Reply: 5600

Ask: Request - read-out IC50 | tested on Human EGF receptor tyrosine kinase (Homo sapiens) | molecule `Cn1c(=O)c(-c2c(Cl)cccc2Cl)cc2cnc(Nc3ccc4c(c3)OCO4)nc21`
Reply: 89

Ask: Request - read-out IC50 | tested on Human EGF receptor tyrosine kinase (Homo sapiens) | molecule `Nc1ncc2cc(-c3c(Cl)cccc3Cl)c(=O)n(CCCc3ccccc3)c2n1`
Reply: 3200

Ask: Request - read-out IC50 | tested on Human EGF receptor tyrosine kinase (Homo sapiens) | molecule `CCn1c(=O)c(-c2ccccc2)cc2cnc(Nc3ccccc3)nc21`
Reply: 180

Ask: Request - read-out IC50 | tested on Human EGF receptor tyrosine kinase (Homo sapiens) | molecule `COc1ccc(Nc2ncc3cc(-c4c(Cl)cccc4Cl)c(=O)n(C)c3n2)cc1`
Reply: 65

Ask: Request - read-out IC50 | tested on Human EGF receptor tyrosine kinase (Homo sapiens) | molecule `CCOc1ccc(Nc2ncc3cc(-c4c(Cl)cccc4Cl)c(=O)n(CC)c3n2)cc1`
Reply: 300

Ask: Request - read-out IC50 | tested on Human EGF receptor tyrosine kinase (Homo sapiens) | molecule `COC(=O)Cn1c(=O)c(-c2c(Cl)cccc2Cl)cc2cnc(N)nc21`
Reply: 1200

Ask: Request - read-out IC50 | tested on Human EGF receptor tyrosine kinase (Homo sapiens) | molecule `COC(=O)Cc1ccc(Nc2ncc3cc(-c4c(Cl)cccc4Cl)c(=O)n(C)c3n2)cc1`
Reply: 630

Ask: Request - read-out IC50 | tested on Human EGF receptor tyrosine kinase (Homo sapiens) | molecule `Cn1c(=O)c(-c2c(Cl)cccc2Cl)cc2cnc(Nc3cccc(O)c3)nc21`
Reply: 140

Ask: Request - read-out IC50 | tested on Human EGF receptor tyrosine kinase (Homo sapiens) | molecule `CN1CCN(CCCNc2ncc3cc(-c4c(Cl)cccc4Cl)c(=O)n(C)c3n2)CC1`
Reply: 8700

Ask: Request - read-out IC50 | tested on Human EGF receptor tyrosine kinase (Homo sapiens) | molecule Cn1c(=O)c(-c2c(Cl)cccc2Cl)cc2cnc([S+](C)[O-])nc21 (stereo not drawn)
Reply: 850

Ask: Request - read-out IC50 | tested on Human EGF receptor tyrosine kinase (Homo sapiens) | molecule `Cn1c(=O)c(-c2c(Cl)cccc2Cl)cc2cnc(Nc3cccnc3)nc21`
Reply: 110

Ask: Request - read-out IC50 | tested on Human EGF receptor tyrosine kinase (Homo sapiens) | molecule `COc1ccc(Nc2ncc3cc(-c4c(Cl)cccc4Cl)c(=O)n(C)c3n2)cn1`
Reply: 1320
